# TARGET: human glucagon receptor (human, UniProt P47871 26-477)
# Sequence (P47871 26-477): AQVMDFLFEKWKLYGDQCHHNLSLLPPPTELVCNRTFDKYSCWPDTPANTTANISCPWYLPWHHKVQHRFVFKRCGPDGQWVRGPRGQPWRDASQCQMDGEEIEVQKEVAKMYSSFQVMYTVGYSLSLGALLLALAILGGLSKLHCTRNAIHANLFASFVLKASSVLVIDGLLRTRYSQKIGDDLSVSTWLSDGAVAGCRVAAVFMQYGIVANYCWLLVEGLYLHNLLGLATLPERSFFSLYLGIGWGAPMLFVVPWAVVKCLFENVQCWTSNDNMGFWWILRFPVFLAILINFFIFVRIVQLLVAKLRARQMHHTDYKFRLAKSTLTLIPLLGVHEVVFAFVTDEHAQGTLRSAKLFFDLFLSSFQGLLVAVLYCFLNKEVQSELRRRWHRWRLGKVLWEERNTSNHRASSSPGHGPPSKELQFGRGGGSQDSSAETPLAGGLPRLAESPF
# PROCEDURE TEXT: cell-based or functional assay
PROPERTY NAME: GCG-R EC50 in vitro [nM] (cAMP, AlphaScreen, HEK293 cells expressing human Glucagon-R)

H-HSQGTFTSDYSKYLDKARAEDFVKWLEST-OH [Compound 3]; 0.03 nM
H-HSQGTFTSDYSKYLESARAEDFVKWLEST-OH [Compound 8]; 0.38 nM
H-HSQGTFTSDYSKYLDSARAEDFVSWLEST-OH [Compound 10]; 0.32 nM
